From: patent US20090092581A1

Target: T1, Type I IFN receptor on iLite human IFN-α gene-reporter cells (human) (UniProt P17181)
T1 sequence (looked up) 1: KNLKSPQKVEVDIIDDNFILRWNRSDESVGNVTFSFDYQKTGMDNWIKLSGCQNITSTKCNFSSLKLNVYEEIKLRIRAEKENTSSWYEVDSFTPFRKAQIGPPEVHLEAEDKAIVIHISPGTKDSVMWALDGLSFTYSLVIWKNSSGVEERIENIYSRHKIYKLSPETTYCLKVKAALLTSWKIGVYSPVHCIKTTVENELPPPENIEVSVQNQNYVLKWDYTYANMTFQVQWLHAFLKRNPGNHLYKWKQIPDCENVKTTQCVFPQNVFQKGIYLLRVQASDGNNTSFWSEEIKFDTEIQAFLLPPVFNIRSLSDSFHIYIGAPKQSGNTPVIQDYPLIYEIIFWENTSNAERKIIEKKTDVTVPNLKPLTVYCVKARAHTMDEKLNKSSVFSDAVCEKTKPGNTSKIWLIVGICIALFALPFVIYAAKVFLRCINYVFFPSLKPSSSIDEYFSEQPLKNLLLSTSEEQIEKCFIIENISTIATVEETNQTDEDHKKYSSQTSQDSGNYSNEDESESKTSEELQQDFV
T1 sequence (looked up) 2: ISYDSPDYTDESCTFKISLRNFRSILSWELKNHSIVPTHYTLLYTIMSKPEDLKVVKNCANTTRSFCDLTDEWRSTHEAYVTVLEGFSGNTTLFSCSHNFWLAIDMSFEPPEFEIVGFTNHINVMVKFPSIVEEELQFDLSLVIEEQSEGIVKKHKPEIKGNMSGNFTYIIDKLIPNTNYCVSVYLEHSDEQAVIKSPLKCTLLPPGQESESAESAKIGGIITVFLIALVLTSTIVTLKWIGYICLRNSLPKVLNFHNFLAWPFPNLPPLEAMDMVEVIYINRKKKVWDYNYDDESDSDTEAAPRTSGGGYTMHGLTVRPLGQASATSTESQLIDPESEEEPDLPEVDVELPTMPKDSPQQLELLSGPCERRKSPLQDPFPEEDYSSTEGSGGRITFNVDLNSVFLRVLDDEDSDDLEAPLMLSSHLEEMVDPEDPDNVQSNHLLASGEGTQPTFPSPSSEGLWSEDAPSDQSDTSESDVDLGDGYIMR
Assay: cell-based or functional assay
measuredProperty: Luciferase Induction Activity (U/mL)

{"columns": ["binder", "quantitativeResult"],
 "data": [
  ["Cynomolgus IFN-α protein SEQ ID 56, expressed in Vero tissue culture supernatant (ligand) CDLPQTHSLGHRRALILLAQMGRISPFSCLKDRHDFGFPQEEFDGNQFQKAQAMSVLHEMIQQTFNLFSTKDSSAAWEQNLLEKFSAELYQQLNDLKACVIAEPGMEDTPLMNEDSILAVKKYFQRITLYLTEKKYSPCAWEVVRAEIMRSLSFSTNLQKRLRRKD", 822],
  ["Cynomolgus IFN-α protein SEQ ID 48, expressed in Vero tissue culture supernatant (ligand) MALSFSLLMAVVVLSYKSICSLGCDPPRTHSLGHRRALILLAQMERISPFSCLKDRCDFAFPQEEFDGNQFQKAQAMSVLHEMIQQTFNLFSTKDSSAAWEQNLLEKFSAELYQQLNDLKACVIAEPGMEETLLMNEDSILAVKKYFQRITLYLTEKKYSPCAWEVVRAEIMRSLSFSTNLQKRLRRKD", 2170],
  ["Cynomolgus IFN-α protein SEQ ID 50, expressed in Vero tissue culture supernatant (ligand) CNPSQTHNMNNRRTLMLMAQMRRISPFSCLKDRNDFEFPQEEFDGNQFQNTQAISVLHEMMQQTFNLFSTKDSSAAWDETLLDKFYIELFQQLNDLEACVIQEAGVEETPLMNEDSILAVRKYFQRITLYLMEKKYSPCAWEVVRAEIMRSLSFSTNLQKRLRRKD", 8040],
  ["Cynomolgus IFN-α protein SEQ ID 44, expressed in Vero tissue culture supernatant (ligand) CDLPQTHSLGHRRALILLAQMGRISPFSCLKDRRDFAFPQEEFDGNQFQKAQAMSVLHEMIQQTFNLFSTKDSSAAWEQNLLEKFSAELYQQLNDLKACVIAEPGMEDTPLMNEDSILAVKKYFQRITLYLTEKKYSPCAWEVVRTEIMRSLSFSTNLQKRLRRKD", 2830],
  ["Cynomolgus IFN-α protein SEQ ID 52, expressed in Vero tissue culture supernatant (ligand) MALSFSLLMAVVVLSYKSICSLGCDLPQTHSLGHRRALILLAQMQRISLPSCLKDRHDFAFLQEFDGNQFQKAQAMSVLHEMIQQTFNLLSTKDSSAAWDETLLDKFYIELFQQLNDLEACVIQEAGVEETPLMNEDSILAVRKYFQRITLYLTEKKYSPCAWEVVRAEIMRSLSFSTNLQKRLGRKD", 515]
]}
